molecular target: KAT6A Full length enzyme (Homo sapiens (Human), UniProt Q92794); assay: KAT6A assay (SAMDI-MS acetylation of H3 1-21 peptide); format: biochemical; conditions: Morrison equation fit; replicate number in parentheses; read-out: KAT6A Ki (nM) (replicate number)
Sequence (Q92794 other isoform, or with tags, fused parts or gaps): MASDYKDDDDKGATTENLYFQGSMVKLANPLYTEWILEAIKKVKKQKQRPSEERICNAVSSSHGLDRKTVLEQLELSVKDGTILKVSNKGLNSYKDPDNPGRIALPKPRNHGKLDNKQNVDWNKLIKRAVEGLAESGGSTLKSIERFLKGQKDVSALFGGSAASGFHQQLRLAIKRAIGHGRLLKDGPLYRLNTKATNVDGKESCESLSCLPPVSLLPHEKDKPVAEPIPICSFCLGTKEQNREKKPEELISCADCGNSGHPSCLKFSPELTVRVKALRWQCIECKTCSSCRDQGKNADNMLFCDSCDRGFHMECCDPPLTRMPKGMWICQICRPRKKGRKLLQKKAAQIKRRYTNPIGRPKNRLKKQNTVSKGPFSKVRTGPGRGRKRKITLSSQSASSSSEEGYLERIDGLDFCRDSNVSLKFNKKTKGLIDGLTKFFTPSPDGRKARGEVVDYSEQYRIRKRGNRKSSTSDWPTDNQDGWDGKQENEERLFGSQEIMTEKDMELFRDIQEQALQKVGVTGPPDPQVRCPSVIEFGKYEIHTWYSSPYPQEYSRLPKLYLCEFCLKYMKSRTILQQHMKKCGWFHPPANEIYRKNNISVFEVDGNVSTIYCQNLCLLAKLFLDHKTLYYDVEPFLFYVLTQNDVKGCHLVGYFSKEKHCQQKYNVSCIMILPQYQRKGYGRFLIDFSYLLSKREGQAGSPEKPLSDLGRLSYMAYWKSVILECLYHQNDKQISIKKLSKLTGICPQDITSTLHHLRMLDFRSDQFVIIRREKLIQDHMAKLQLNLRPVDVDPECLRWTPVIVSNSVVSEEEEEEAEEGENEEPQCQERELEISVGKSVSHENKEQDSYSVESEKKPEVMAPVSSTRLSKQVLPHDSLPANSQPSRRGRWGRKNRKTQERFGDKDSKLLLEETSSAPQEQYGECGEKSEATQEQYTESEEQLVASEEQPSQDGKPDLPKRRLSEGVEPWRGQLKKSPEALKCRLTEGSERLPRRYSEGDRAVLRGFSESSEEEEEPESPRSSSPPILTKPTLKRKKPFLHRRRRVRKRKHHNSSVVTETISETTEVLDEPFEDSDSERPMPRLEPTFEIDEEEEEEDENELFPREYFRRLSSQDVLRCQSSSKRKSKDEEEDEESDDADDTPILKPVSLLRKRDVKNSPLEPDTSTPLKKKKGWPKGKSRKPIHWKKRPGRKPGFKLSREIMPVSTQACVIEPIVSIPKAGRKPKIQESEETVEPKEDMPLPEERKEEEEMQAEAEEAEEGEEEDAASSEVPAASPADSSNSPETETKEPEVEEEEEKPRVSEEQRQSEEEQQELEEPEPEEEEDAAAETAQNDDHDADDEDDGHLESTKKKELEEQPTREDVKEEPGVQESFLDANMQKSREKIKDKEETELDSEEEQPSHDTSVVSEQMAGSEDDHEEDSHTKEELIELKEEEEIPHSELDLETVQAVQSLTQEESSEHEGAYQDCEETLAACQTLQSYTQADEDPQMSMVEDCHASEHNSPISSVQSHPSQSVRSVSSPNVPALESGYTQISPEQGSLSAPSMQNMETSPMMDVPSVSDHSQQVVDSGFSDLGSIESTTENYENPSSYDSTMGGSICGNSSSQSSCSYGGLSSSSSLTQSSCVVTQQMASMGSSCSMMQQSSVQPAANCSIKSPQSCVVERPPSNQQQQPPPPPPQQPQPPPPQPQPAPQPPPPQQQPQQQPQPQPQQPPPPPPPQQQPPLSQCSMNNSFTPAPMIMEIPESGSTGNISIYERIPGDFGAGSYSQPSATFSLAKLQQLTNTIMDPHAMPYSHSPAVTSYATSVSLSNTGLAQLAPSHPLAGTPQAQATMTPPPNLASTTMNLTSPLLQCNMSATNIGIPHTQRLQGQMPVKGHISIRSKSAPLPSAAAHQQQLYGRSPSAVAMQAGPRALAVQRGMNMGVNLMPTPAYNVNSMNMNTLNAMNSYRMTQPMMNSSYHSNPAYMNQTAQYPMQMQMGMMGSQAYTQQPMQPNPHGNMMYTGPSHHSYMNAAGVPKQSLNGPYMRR
MEASURE: Ki (nM)
Write it as a number; the unit nM goes unstated.

Enquiry: Need Ki, item COc1cc(F)c(F)cc1S(=O)(=O)Nc1noc2cc(Nc3cc(C4CC4)n[nH]3)c(F)c(OC)c12
Return: 21.4

----------
biological target: KAT5 Full length enzyme (Homo sapiens (Human)); experiment: KAT5 assay (SAMDI-MS acetylation of H4 1-21 peptide); assay type: biochemical; settings: Morrison equation fit; replicate number in parentheses; read-out: KAT5 Ki (nM) (replicate number)
Sequence (Q92993 whole entry): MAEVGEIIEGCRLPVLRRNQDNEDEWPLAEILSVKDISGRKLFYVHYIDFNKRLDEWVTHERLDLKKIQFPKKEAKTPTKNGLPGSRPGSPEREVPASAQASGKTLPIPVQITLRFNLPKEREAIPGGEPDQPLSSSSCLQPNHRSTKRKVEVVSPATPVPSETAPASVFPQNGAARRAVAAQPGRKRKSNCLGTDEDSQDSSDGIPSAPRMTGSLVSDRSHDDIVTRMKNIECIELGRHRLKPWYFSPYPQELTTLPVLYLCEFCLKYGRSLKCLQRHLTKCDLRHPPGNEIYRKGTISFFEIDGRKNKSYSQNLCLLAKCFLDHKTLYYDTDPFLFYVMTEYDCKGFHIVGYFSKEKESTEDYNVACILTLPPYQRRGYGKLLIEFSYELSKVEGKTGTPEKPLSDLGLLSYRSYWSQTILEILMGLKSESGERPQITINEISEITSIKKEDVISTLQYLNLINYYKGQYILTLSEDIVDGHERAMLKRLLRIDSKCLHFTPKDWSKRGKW
Entries and their measured Ki follow.
Write it as a number; the unit nM goes unstated.

These recorded examples may help you get a feel for the data.
Enquiry: Need Ki, item COc1cc2c(NS(=O)(=O)c3c(OC)cccc3OC)noc2cc1Nc1cc(C2CC(F)(F)C2)[nH]n1
Return: 360

Enquiry: Need Ki, item COc1cc2c(NS(=O)(=O)c3c(OC)cccc3OC3CC3)noc2cc1Nc1cc[nH]n1
Return: 365

Enquiry: Need Ki, item COc1cc2c(NS(=O)(=O)c3c(OC)cc([C@H]4CCCN4C)cc3OC)noc2cc1Nc1cc(C2CC2)n[nH]1
Return: 140

Let us examine a further case.
Enquiry: Need Ki, item CCc1cc(Nc2cc3onc(NS(=O)(=O)c4c(OC)cccc4OC)c3cc2OC)nn1C
Return: 287

----------
Entries and their measured log10(Ki) follow.
target: KAT6A Full length enzyme (Homo sapiens (Human)); assay: KAT6A assay (SAMDI-MS acetylation of H3 1-21 peptide); format: biochemical; details: Morrison equation fit; replicate number in parentheses; read-out: KAT6A Ki (nM) (replicate number)
A value of 2 here means Ki of 100 in nM, since values are log10.

Enquiry: Need log10(Ki), item COc1cc2c(NS(=O)(=O)c3c(OC)cccc3OCC(F)F)noc2cc1Nc1cc[nH]n1 [Example 31]
Return: -0.10

Enquiry: Need log10(Ki), item COc1cccc(OC)c1S(=O)(=O)Nc1noc2cc(Nc3ccon3)cc(OC)c12 [Example 16]
Return: -0.70

Enquiry: Need log10(Ki), item CCOc1cccc(OC)c1S(=O)(=O)Nc1noc2cc(Nc3cc(C)[nH]n3)c(OC)cc12 [Example 99]
Return: -0.30

Further cases:
Enquiry: Need log10(Ki), item COc1cc2c(NS(=O)(=O)c3c(OC)cccc3OC)noc2cc1Nc1cc([C@@H](C)O)n[nH]1 (single isomer, unassigned) [Example 87]
Return: 1.37

Enquiry: Need log10(Ki), item CCN1CCCC1c1cc(OC)c(S(=O)(=O)Nc2noc3cc(Nc4cc(C5CC5)[nH]n4)c(OC)cc23)c(OC)c1 (single isomer, unassigned) [Example 191]
Return: 0.36

Enquiry: Need log10(Ki), item COc1cc2c(NS(=O)(=O)c3c(OC)cc(C4CCCCO4)cc3OC)noc2cc1Nc1cc(C2CC2)n[nH]1 (single isomer, unassigned) [Example 143]
Return: 0.04

Enquiry: Need log10(Ki), item CCN1CCCC1c1cc(OC)c(S(=O)(=O)Nc2noc3cc(Nc4cc(C5CC5)[nH]n4)c(OC)cc23)c(OC)c1 (single isomer, unassigned) [Example 190]
Return: 0.75

----------
Entries and their measured Ki follow.
biological target: KAT7+BRPF1+EAF6+ING5 4 protein complex (Homo sapiens (Human), UniProt O95251); test: KAT7 BRPF1 assay (SAMDI-MS acetylation of H3 1-21 peptide); type: biochemical; conditions: Morrison equation fit; replicate number in parentheses
Write it as a number; the unit nM goes unstated.

Enquiry: Need Ki, item CCOc1cc(C)c(F)cc1S(=O)(=O)Nc1noc2cc(Nc3cc(C(C)C)[nH]n3)c(OC)cc12 [Example 79]
Return: 25.2

Enquiry: Need Ki, item COc1cc2c(NS(=O)(=O)c3c(OC)cccc3OC(C)C)noc2cc1Nc1cc[nH]n1 [Example 32]
Return: 89.7

Enquiry: Need Ki, item COc1cc2c(NS(=O)(=O)c3ccc(C)cc3OCC(F)F)noc2cc1Nc1cc[nH]n1 [Example 64]
Return: 146

Enquiry: Need Ki, item COc1cc2c(NS(=O)(=O)c3c(OC)cccc3OC)noc2cc1Nc1ccn(C)n1 [Example 04]
Return: 67.2

Further cases:
Enquiry: Need Ki, item COc1cc2c(NS(=O)(=O)c3c(OC)cc([C@H]4COCCO4)cc3OC)noc2cc1Nc1cc(C2CC2)[nH]n1 [Example 146]
Return: 2.4

----------
Entries and their measured Ki follow.
molecular target: KAT7+BRPF1+EAF6+ING5 4 protein complex (Homo sapiens (Human)); experiment: KAT7 BRPF1 assay (SAMDI-MS acetylation of H3 1-21 peptide); assay type: biochemical; conditions: Morrison equation fit; replicate number in parentheses
Write it as a number; the unit nM goes unstated.

Enquiry: Give KAT7+BRPF1+EAF6+ING5 4 protein complex (Homo sapiens (Human)) Ki for COc1cc2c(NS(=O)(=O)c3c(OC)cc(CN4CC(F)(F)C4)cc3OC)noc2cc1Nc1cc(C2CC2)n[nH]1
Return: 3

Enquiry: Give KAT7+BRPF1+EAF6+ING5 4 protein complex (Homo sapiens (Human)) Ki for COc1cc2c(NS(=O)(=O)c3c(OC)cc(-c4ccn(C)n4)cc3OC)noc2cc1Nc1cc(C2CC2)n[nH]1
Return: 1.2

Further cases:
Enquiry: Give KAT7+BRPF1+EAF6+ING5 4 protein complex (Homo sapiens (Human)) Ki for COc1cccc(OC)c1S(=O)(=O)Nc1noc2cc(Nc3cc[nH]n3)cc(OC)c12
Return: 37.7

----------
molecular target: KAT7+JADE1+EAF6+ING5 4 protein complex (Homo sapiens (Human), UniProt O95251); assay: KAT7 JADE1 assay (SAMDI-MS acetylation of H3 1-21 peptide); assay type: biochemical; conditions: replicate number in parentheses; read-out: KAT7 JADE1 Ki (nM) (replicate)
Entries and their measured Ki follow.
Write it as a number; the unit nM goes unstated.

These recorded examples may help you get a feel for the data.
Enquiry: Give KAT7+JADE1+EAF6+ING5 4 protein complex (Homo sapiens (Human), UniProt O95251) Ki for COc1cc2c(NS(=O)(=O)c3c(OC)cc(N4CCN(C)C(=O)C4)cc3OC)noc2cc1Nc1cc(C2CC2)n[nH]1 [Example 254]
Return: 6.6

Enquiry: Give KAT7+JADE1+EAF6+ING5 4 protein complex (Homo sapiens (Human), UniProt O95251) Ki for COc1cc2c(NS(=O)(=O)c3c(OC)cc(C4CCOC4)cc3OC)noc2cc1Nc1cc(C2CC2)n[nH]1 (single isomer, unassigned) [Example 267]
Return: 9.3

Enquiry: Give KAT7+JADE1+EAF6+ING5 4 protein complex (Homo sapiens (Human), UniProt O95251) Ki for COc1cc2c(NS(=O)(=O)c3c(OC)cc(C(=O)N4CCC[C@@H](F)C4)cc3OC)noc2cc1Nc1cc(C2CC2)n[nH]1 [Example 260]
Return: 6.7

Enquiry: Give KAT7+JADE1+EAF6+ING5 4 protein complex (Homo sapiens (Human), UniProt O95251) Ki for COc1cc2c(NS(=O)(=O)c3c(OC)cc(C(C)OC)cc3OC)noc2cc1Nc1cc(C2CC2)[nH]n1 (single isomer, unassigned) [Example 272]
Return: 5

Enquiry: Give KAT7+JADE1+EAF6+ING5 4 protein complex (Homo sapiens (Human), UniProt O95251) Ki for COCC(OC)c1cc(OC)c(S(=O)(=O)Nc2noc3cc(Nc4cc(C5CC5)[nH]n4)c(OC)cc23)c(OC)c1 (single isomer, unassigned) [Example 275]
Return: 9.7

Let us examine a further case.
Enquiry: Give KAT7+JADE1+EAF6+ING5 4 protein complex (Homo sapiens (Human), UniProt O95251) Ki for COc1cc2c(NS(=O)(=O)c3c(OC)cc(C4CCCOC4)cc3OC)noc2cc1Nc1cc(C2CC2)n[nH]1 (single isomer, unassigned) [Example 268]
Return: 8.8

----------
biological target: KAT7+JADE1+EAF6+ING5 4 protein complex (Homo sapiens (Human), UniProt O95251); experiment: KAT7 JADE1 assay (SAMDI-MS acetylation of H3 1-21 peptide); type: biochemical; details: Morrison equation fit; replicate number in parentheses; read-out: KAT7 JADE1 Ki (nM) (replicate number)
Entries and their measured Ki follow.
Write it as a number; the unit nM goes unstated.

These recorded examples may help you get a feel for the data.
Enquiry: Need Ki, item COc1cc2c(NS(=O)(=O)c3c(OC)cc(-c4ccccc4)cc3OC)noc2cc1Nc1cc(C2CC2)n[nH]1
Return: 3.6

Enquiry: Need Ki, item COc1cc2c(NS(=O)(=O)c3c(OC)cc(-n4ncccc4=O)cc3OC)noc2cc1Nc1cc(C2CC2)n[nH]1
Return: 16.9

Enquiry: Need Ki, item CCc1cc(Nc2cc3onc(NS(=O)(=O)c4c(OC)cc(C5COCCO5)cc4OC)c3cc2OC)[nH]n1 (single isomer, unassigned) [Example 239]
Return: 14.1

Further cases:
Enquiry: Need Ki, item COc1cc2c(NS(=O)(=O)c3c(OC)cccc3OC)noc2cc1Nc1cc2n(n1)CC[C@H]2C (single isomer, unassigned)
Return: 62.4

Enquiry: Need Ki, item COc1cccc(OC)c1S(=O)(=O)Nc1noc2cc(Nc3cc[nH]n3)cc(OC)c12
Return: 131

Enquiry: Need Ki, item CCN1CCCC1c1cc(OC)c(S(=O)(=O)Nc2noc3cc(Nc4cc(C5CC5)[nH]n4)c(OC)cc23)c(OC)c1 (single isomer, unassigned) [Example 190]
Return: 54.5

meta.source: patent US20250122183A1
